assay: in vitro; format: cell-based; conditions: MTT, read-out: PC12 viability percent (cytotoxicity)

compound: Nc1c2c(nc3ccccc13)CCCC2 [Tacrine, tacrine, reference compound]
unit_descriptor: %
viability at 24 h, 50 µM: 67.3

---

molecular target: BuChE (from equine serum) (Equus caballus, UniProt P81908); construct: BuChE from equine serum was employed for Ellman’s assay; purchased Merck or Aldrich; host or cells: equine serum; test: biochemical; type: biochemical; conditions: test concentration not given
Sequence (P81908 whole entry): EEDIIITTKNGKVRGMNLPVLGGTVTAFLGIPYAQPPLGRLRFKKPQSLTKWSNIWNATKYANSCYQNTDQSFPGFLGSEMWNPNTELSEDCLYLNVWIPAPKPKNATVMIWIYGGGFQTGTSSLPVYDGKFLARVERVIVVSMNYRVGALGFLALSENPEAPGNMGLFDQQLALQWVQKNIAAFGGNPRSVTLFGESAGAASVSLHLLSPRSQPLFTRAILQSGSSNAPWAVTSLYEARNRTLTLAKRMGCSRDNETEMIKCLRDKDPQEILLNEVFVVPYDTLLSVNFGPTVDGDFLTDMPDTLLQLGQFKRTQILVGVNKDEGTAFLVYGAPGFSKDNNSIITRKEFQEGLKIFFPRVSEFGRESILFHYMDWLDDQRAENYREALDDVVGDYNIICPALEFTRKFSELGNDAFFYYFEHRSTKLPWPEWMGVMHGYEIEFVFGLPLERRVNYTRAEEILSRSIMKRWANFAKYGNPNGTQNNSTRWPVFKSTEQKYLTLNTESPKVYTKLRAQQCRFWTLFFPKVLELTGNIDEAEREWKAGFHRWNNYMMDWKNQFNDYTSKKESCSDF
Please mark Met if the recorded eq BuChE %inhib. is equal to or greater than 40%, and Not met if it falls below.

molecule: O=c1oc2ccccc2cc1-c1ccc(OCc2cn(Cc3cccc(F)c3)nn2)cc1
group_label: Met

molecule: COc1cccc2cc(-c3ccc(OCc4cn(Cc5ccccc5[N+](=O)[O-])nn4)cc3)c(=O)oc12
group_label: Met

molecule: COc1cccc2cc(-c3ccc(OCc4cn(Cc5cccc(F)c5)nn4)cc3)c(=O)oc12
group_label: Met

molecule: O=c1oc2ccc([N+](=O)[O-])cc2cc1-c1ccc(OCc2cn(Cc3ccccc3F)nn2)cc1
group_label: Not met

molecule: O=c1oc2ccccc2cc1-c1ccc(OCc2cn(Cc3ccc(Cl)cc3)nn2)cc1
group_label: Not met

molecule: O=c1oc2ccccc2cc1-c1ccc(OCc2cn(Cc3ccc(F)cc3)nn2)cc1
group_label: Not met

molecule: O=c1oc2ccccc2cc1-c1ccc(OCc2cn(Cc3ccc(Br)cc3)nn2)cc1
group_label: Met

molecule: COc1cccc2cc(-c3ccc(OCc4cn(Cc5ccccc5F)nn4)cc3)c(=O)oc12
group_label: Not met

molecule: O=c1oc2ccc(Br)cc2cc1-c1ccc(OCc2cn(Cc3ccccc3F)nn2)cc1
group_label: Met

molecule: Cc1cccc(Cn2cc(COc3ccc(-c4cc5ccccc5oc4=O)cc3)nn2)c1
group_label: Not met

---

Measured IC50 accompanies every entry in the list below.
biological target: BuChE (from equine serum) (Equus caballus, UniProt P81908); construct: BuChE from equine serum was employed for Ellman’s assay; experiment: biochemical; conditions: mean ± SEM of three experiments, read-out: eq BuChE IC50

molecule: O=c1oc2ccc([N+](=O)[O-])cc2cc1-c1ccc(OCc2cn(Cc3ccccc3)nn2)cc1
IC50 (µM): 6.3
//
molecule: COc1cccc2cc(-c3ccc(OCc4cn(Cc5ccc(F)cc5)nn4)cc3)c(=O)oc12
IC50 (µM): 18.9
//
molecule: O=c1oc2ccccc2cc1-c1ccc(OCc2cn(Cc3ccccc3)nn2)cc1
IC50 (µM): 27.6
//
molecule: O=c1oc2ccccc2cc1-c1ccc(OCc2cn(Cc3ccccc3F)nn2)cc1
IC50 (µM): 36.5
//
molecule: COc1cccc2cc(-c3ccc(OCc4cn(Cc5ccc(Cl)cc5)nn4)cc3)c(=O)oc12
IC50 (µM): 6.7
//
molecule: COc1cccc(Cn2cc(COc3ccc(-c4cc5ccccc5oc4=O)cc3)nn2)c1
IC50 (µM): 19.5
//
molecule: COc1cccc2cc(-c3ccc(OCc4cn(Cc5ccccc5)nn4)cc3)c(=O)oc12
IC50 (µM): 45.1

---

Molecular target: 15-LOX (soybean lipoxygenase) (Glycine max, UniProt P08170)
Construct: purchased Merck or Aldrich
Sequence (P08170 whole entry): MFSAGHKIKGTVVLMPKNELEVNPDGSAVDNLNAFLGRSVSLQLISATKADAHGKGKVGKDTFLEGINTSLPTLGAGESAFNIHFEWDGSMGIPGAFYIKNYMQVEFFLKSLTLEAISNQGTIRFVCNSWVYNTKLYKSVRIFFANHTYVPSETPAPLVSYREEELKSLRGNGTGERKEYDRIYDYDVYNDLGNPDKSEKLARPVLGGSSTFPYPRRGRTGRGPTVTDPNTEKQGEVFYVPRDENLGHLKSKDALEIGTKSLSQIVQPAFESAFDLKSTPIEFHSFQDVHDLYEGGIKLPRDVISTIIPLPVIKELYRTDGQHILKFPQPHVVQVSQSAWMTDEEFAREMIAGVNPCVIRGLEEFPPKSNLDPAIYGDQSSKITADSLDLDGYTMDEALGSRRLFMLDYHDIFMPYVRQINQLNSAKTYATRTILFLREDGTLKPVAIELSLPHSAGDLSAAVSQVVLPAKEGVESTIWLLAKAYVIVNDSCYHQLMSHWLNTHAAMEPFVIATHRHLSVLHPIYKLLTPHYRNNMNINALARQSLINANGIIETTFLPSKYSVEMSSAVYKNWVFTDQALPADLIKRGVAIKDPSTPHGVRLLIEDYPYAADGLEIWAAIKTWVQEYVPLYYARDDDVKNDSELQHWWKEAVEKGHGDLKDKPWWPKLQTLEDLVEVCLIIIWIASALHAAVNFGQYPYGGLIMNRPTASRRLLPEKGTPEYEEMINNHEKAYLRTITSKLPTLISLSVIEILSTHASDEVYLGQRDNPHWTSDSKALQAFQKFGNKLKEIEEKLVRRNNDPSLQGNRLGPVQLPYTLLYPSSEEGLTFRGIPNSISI
Test: Soybean 15-LOX inhibition assay
Assay type: biochemical
Protocol: A solution of the target compound was prepared in DMSO, and it was diluted with phosphate buffer (0.1 M, pH = 8.0).

compound: O=c1oc2ccccc2cc1-c1ccc(OCc2cn(Cc3ccccc3F)nn2)cc1 [8b]
modifier_sign: =
IC50 (µM): 16.5
//
compound: COc1cccc2cc(-c3ccc(OCc4cn(Cc5ccccc5F)nn4)cc3)c(=O)oc12 [8o]
modifier_sign: =
IC50 (µM): 14.2
//
compound: O=c1oc2ccccc2cc1-c1ccc(OCc2cn(Cc3ccccc3)nn2)cc1 [8a]
modifier_sign: =
IC50 (µM): 36.2
//
compound: COc1cccc(Cn2cc(COc3ccc(-c4cc5ccccc5oc4=O)cc3)nn2)c1 [8l]
modifier_sign: =
IC50 (µM): 39.1
//
compound: O=c1oc2ccc([N+](=O)[O-])cc2cc1-c1ccc(OCc2cn(Cc3ccccc3)nn2)cc1 [8v]
modifier_sign: >
IC50 (µM): 100
//
compound: COc1ccc(Cn2cc(COc3ccc(-c4cc5ccccc5oc4=O)cc3)nn2)cc1 [8m]
modifier_sign: =
IC50 (µM): 41
//
compound: COc1cccc2cc(-c3ccc(OCc4cn(Cc5ccccc5)nn4)cc3)c(=O)oc12 [8n]
modifier_sign: =
IC50 (µM): 42.5
//
compound: COc1cccc2cc(-c3ccc(OCc4cn(Cc5cccc(F)c5)nn4)cc3)c(=O)oc12 [8p]
modifier_sign: =
IC50 (µM): 22.6
//
compound: O=c1oc2ccccc2cc1-c1ccc(OCc2cn(Cc3ccc(F)cc3)nn2)cc1 [8d]
modifier_sign: =
IC50 (µM): 45.2
